target_system: EGFR del/T790M (PC9-DRH) (Homo sapiens, UniProt P00533, DEL746-750/T790M)
Construct: detects endogenous levels of phospho-EGF Receptor (Tyr1068) protein; endogenous in cells
Sequence (P00533 with tags, fused parts or gaps DEL746-750/T790M): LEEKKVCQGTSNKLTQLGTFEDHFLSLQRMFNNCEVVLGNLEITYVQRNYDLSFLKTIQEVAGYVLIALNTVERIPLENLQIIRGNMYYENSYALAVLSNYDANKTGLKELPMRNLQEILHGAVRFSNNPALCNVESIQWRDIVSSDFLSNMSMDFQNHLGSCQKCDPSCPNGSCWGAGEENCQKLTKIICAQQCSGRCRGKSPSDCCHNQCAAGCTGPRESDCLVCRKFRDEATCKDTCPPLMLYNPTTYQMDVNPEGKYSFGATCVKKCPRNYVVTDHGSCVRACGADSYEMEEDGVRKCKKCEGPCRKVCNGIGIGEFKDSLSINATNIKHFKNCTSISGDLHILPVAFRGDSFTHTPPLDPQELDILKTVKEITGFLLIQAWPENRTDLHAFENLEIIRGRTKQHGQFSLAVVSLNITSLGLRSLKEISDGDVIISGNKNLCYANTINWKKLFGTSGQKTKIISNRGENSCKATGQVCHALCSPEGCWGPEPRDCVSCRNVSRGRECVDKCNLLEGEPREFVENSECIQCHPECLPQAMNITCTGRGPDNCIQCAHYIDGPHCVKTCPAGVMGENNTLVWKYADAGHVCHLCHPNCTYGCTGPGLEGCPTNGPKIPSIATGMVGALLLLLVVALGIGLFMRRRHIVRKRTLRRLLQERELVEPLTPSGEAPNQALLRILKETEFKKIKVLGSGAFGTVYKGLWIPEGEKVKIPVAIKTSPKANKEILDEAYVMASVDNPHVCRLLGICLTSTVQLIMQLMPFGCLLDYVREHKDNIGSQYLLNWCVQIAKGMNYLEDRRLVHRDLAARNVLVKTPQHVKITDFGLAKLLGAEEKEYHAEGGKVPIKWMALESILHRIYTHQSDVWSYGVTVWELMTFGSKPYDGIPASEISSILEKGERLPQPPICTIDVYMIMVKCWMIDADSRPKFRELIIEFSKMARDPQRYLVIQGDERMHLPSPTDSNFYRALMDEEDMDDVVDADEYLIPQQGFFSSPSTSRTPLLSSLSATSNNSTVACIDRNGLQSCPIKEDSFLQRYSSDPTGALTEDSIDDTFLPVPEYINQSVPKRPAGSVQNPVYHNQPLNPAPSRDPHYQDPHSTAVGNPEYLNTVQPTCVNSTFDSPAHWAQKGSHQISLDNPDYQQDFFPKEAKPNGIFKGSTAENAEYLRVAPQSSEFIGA
assay_method_text: pEGFR Y1068 ELISA assay, PC9-DRH cells
condition_info: inhibition of phosphorylation of EGFR at Tyr1068; PC9-DRH cells (dacomitinib resistant); 2 hr compound incubation
Give pIC50 for every item shown.
Scale: negative log10 of molar concentration, which is what pIC50 denotes.

Check the records and state pIC50 for C=CC(=O)NC1(C)CN(c2nc(Nc3cnn(C)c3)c3ncn(C(C)C)c3n2)C1 [Example 13]
7.60

Check the records and state pIC50 for C=CC(=O)N[C@@H]1CN(c2nc(Nc3cn(C)nc3C)c3ncn(C(C)C)c3n2)C[C@H]1F [Example 61]
5.67

Check the records and state pIC50 for C=CC(=O)NC1(C)CN(c2nc(Nc3cnn(C4CCN(C)CC4)c3)c3ncn(C(C)C)c3n2)C1 [Example 39]
8.00

Check the records and state pIC50 for C=CC(=O)N1C[C@@H]2CN(c3nc(Nc4cnn(C)c4)c4ncn(CC)c4n3)C[C@@H]2C1 [Example 16]
7.04

Check the records and state pIC50 for C=CC(=O)N1C[C@@H]2CN(c3nc(Nc4ccc(N5CCN(C)CC5)cc4)c4ncn(C)c4n3)C[C@@H]2C1 [Example 33]
8.40

Check the records and state pIC50 for C=CC(=O)N1C[C@@H](F)[C@H](Nc2nc(Nc3ccc(N4CCN(C)CC4)cc3)c3ncn(C(C)C)c3n2)C1 (relative stereo) [Example 19]
7.60

Check the records and state pIC50 for C=CC(=O)NC1(C)CN(c2nc(Nc3cnn(CCN(C)C)c3)c3ncn(C(C)C)c3n2)C1 [Example 42]
7.42

Check the records and state pIC50 for C=CC(=O)N[C@@H]1CN(c2nc(Nc3ccc(N4CCC(N(C)C)CC4)cc3)c3ncn(C(C)C)c3n2)C[C@H]1F [Example 89]
8.52

The values you see were collected from patent US9290496B2.
